src = patent US20050282818A1

For each of the compounds below, state its IC50.
# SYSTEM_UNDER_TEST: APC11/APC2 (Homo sapiens, UniProt Q9NYG5+Q9UJX6)
# Sequence (Q9NYG5 whole entry): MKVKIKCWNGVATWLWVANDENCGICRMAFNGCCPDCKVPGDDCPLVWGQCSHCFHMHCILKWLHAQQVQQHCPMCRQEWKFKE
# Sequence (Q9UJX6 whole entry): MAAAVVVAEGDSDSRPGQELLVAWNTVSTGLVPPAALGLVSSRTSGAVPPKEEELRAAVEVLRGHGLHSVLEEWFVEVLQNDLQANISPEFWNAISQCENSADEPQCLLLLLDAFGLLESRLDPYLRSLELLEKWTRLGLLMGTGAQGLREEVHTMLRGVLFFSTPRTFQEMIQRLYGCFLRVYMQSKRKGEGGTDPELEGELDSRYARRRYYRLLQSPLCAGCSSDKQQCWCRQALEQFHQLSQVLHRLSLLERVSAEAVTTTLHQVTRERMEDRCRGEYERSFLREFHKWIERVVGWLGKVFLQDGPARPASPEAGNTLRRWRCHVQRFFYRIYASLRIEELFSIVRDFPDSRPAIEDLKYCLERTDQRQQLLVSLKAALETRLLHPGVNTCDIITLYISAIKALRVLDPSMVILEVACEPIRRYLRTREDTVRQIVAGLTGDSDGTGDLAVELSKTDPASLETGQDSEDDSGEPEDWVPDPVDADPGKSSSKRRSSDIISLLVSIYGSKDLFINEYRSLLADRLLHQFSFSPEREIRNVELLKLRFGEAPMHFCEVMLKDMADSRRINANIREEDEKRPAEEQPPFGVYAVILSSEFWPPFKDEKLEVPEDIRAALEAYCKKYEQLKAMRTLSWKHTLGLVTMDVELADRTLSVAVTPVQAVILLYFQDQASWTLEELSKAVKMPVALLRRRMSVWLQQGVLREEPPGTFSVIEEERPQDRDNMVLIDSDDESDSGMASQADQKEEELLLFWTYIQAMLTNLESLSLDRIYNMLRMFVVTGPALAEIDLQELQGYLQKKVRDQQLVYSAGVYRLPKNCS
# MEASUREMENT_PROTOCOL: APC-11/APC-2 ligase assay (APC auto ubiquitination)
# SETUP_CONDITIONS: APC assay

1. O=[N+]([O-])c1ccc(-c2ccc(C(F)(F)F)cc2C(F)(F)F)c2nonc12 : 1 to 20 µM
2. O=[N+]([O-])c1ccc(-c2cccc3ccccc23)c2nonc12 : 1 to 20 µM
3. COc1cccc(Nc2ccc3nonc3c2S(=O)(=O)Nc2cccc(OC)c2OC)c1OC : ≥ 20 µM

Looking up `Cc1cccc(-c2cc([N+](=O)[O-])cc3nonc23)c1` , I found its IC50 recorded as 1 to 20 µM
